// data source = patent US20120094909A1

# subject of test: T1, human PCSK9 (proprotein convertase subtilisin kexin type 9) (human, UniProt Q8NBP7 31-692)
# T1 construct: Directly immobilized (SPR ProteOn), biotinylated (BLI), or in solution, depending on the assay; also called hPCSK9
# method: BLI, biotinylated hPCSK9 on sensor tips
We'd kindly ask you to apply these kon classes: range 1 (below 300000 M⁻¹ s⁻¹), range 2 (300000 M⁻¹ s⁻¹ to below 500000 M⁻¹ s⁻¹), range 3 (500000 M⁻¹ s⁻¹ or more)

binder	group
2451C06 (designed binder, Anti-PCSK9 Adnectin, His6-tagged) MGVSDVPRDLEVVAATPTSLLISWDAPAGAASYGYYRITYGETGGNSPVQEFTVPVSKGTATISGLKPGVDYTITVYAVEFPFPGAGYYHRPISINYRTEIDKPSQHHHHHH	range 2
ATI001117 (designed binder, PEGylated on the cysteine of the C-terminal tail (marked by asterisk in Table 5 as having been pegylated; PEG not specified), Anti-PCSK9 Adnectin, cysteine mutant of 2011H05, His6-tagged; also called 2011H05 Cys mut) MGVSDVPRDLEVVAATPTSLLISWVPSSHAYGYYRITYGETGGNSPVQEFTVPVGVGTATISGLKPGVDYTITVYAVEYAFEGAGYYHRPISINYRTGSGCHHHHHH	range 1
2382E05 (designed binder, Anti-PCSK9 Adnectin, His6-tagged) MGVSDVPRDLEVVAATPTSLLISWDAPAEGGYGYYRITYGETGGNSPVQEFTVPVSKGTATISGLKPGVDYTITVYAVEFDFPGAGYYHRPISINYRTEIDKPSQHHHHHH	range 2

Prompt line: Which band does 2381F11 (designed binder, Anti-PCSK9 Adnectin, His6-tagged) MGVSDVPRDLEVVAATPTSLLISWDAPADGGYGYYRITYGETGGNSPVQEFTVPVSKSTATISGLKPGVDYTITVYAVEYTFPGAGYYHRPISINYRTEIDKPSQHHHHHH fall in?
Response line: range 2

Prompt line: Which band does 2382D09 (designed binder, Anti-PCSK9 Adnectin, His6-tagged) MGVSDVPRDLEVVAATPTSLLISWDAPAEGYGYYRITYGETGGNSPVQEFTVPVSKGTATISGLKPGVDYTITVYAVEFDFPGAGYYHRPISINYRTEIDKPSQHHHHHH fall in?
Response line: range 3

Prompt line: Which band does 2382G04 (designed binder, Anti-PCSK9 Adnectin, His6-tagged) MGVSDVPRDLEVVAATPTSLLISWDAPAGGGYGYYRITYGETGGNSPVQEFTVPSSKGTATISGLKPGVDYTITVYAVEFDFPGAGYYHRPISINYRTEIDKPSQHHHHHH fall in?
Response line: range 2

Prompt line: Which band does 2382B09 (designed binder, Anti-PCSK9 Adnectin, His6-tagged) MGVSDVPRDLEVVAATPTSLLISWDAPADAYGYYRITYGETGGNSPVQEFTVPVSKGTATISGLKPGVDYTITVYAVEFDYPGSGYYHRPISINYRTEIDKPSQHHHHHH fall in?
Response line: range 2

Prompt line: Which band does ATI001168 (designed binder) MGVSDVPRDLEVVAATPTSLLISWEPPSHAYGYYRITYGETGGNSPVQEFTVPIGKGTATISGLKPGVDYTITVYAVEYPWKGSGYYHRPISINYRTEIDKPSQHHHHHH fall in?
Response line: range 3

Prompt line: Which band does 2971A03 (designed binder, Anti-PCSK9 Adnectin, His6-tagged) MGVSDVPRDLEVVAATPTSLLISWDPPSDDYGYYRITYGETGGNSPVQEFTVPIGKGTATISGLKPGVDYTITVYAVEFPWPHAGYYHRPISINYRTEIDKPSQHHHHHH fall in?
Response line: range 3
